- target.entity: Lanosterol synthase (Homo sapiens) (UniProt P48449)
- Sequence (P48449 whole entry): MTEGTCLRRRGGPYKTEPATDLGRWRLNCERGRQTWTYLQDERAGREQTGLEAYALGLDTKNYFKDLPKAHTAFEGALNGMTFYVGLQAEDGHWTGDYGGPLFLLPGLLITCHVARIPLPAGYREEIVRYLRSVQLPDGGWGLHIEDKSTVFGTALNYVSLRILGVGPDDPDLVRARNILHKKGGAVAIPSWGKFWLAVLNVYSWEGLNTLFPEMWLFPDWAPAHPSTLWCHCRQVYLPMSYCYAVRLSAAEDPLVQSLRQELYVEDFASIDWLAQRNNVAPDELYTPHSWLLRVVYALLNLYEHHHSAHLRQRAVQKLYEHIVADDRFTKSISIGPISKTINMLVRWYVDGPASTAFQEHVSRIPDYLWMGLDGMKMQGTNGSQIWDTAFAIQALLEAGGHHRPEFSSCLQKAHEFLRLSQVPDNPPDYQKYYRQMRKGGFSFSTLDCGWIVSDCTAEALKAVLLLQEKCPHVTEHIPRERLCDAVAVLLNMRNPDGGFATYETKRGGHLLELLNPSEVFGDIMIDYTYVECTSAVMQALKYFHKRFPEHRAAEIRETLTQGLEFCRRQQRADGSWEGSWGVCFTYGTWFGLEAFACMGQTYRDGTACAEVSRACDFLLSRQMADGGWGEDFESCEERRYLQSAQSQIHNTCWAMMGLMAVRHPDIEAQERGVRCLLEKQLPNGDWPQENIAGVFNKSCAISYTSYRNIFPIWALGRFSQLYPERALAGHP
- experimental.protocol: Inhibition of OSC in human HL60 cells assessed as accumulation of 2,3-oxidosqualene by GC-MS method
- Assay type: cell-based
- recorded.conditions: HL-60
The source made the active and inactive calls. The calls are words filed in the database; no cut-off is given here.
value.type: inhibition

CN(CCCc1ccccc1)Cc1ccc(C2CCCN(C)C2)cc1 (racemic) = Active
CN(C/C=C/c1ccccc1)Cc1ccc(C2CCCN(C)C2)cc1 (stereo not drawn) = Active
CN1CCC=C(c2ccc(CN(C)Cc3ccc([N+](=O)[O-])cc3)cc2)C1 = Active

###

- experimental.protocol: Inhibition of Saccharomyces cerevisiae OSC expressed in recombinant Saccharomyces cerevisiae SMY8 using [14C]-(3S)-2,3-oxidosqualene as substrate
value.type: IC50 (nM)
// return numeric value only (unit: nM, not printed)

[ask] Fill in reported IC50 for this entry: C=CCN(C)CCCCCCOc1ccc(C(=O)c2ccc(Br)cc2)c(F)c1
[reply] 900

###

- target.entity: Lanosterol synthase (Homo sapiens, UniProt P48449)
- Sequence (P48449 whole entry): as above
- experimental.protocol: Inhibition of human OSC expressed in recombinant Saccharomyces cerevisiae SMY8 using [14C]-(3S)-2,3-oxidosqualene as substrate
value.type: pIC50
The meaning of pIC50 here: minus log10 of the concentration in molar units.

Known results for compounds:
CN1CCC=C(c2ccc(CN(C)C/C=C/c3ccccc3)cc2)C1 = 5.28
CN1CCC(c2ccc(CN(C)Cc3ccc(Cl)cc3)cc2)CC1 = 6.29

[ask] Note down pIC50 recorded for CN(C/C=C/c1ccccc1)Cc1ccc(C2CCCN(C)C2)cc1 (stereo not drawn)
[reply] 5.69

[ask] In one line, give reported pIC50 of the entry CN(Cc1ccc(Cl)cc1)Cc1ccc(C2CCCN(C)C2)cc1 (stereo not drawn) .
[reply] 5.69

[ask] State, in one line, measured pIC50 of CN1CCCC(c2ccc3c(c2)CCC3N(C)Cc2ccc(Cl)cc2)C1 (racemic)
[reply] 5.37

[ask] Identify pIC50 associated with the compound CN(Cc1ccc(C2CCCN(C)C2)cc1)Cc1ccc2ccccc2c1 (racemic)
[reply] 5.07

[ask] Write down pIC50 measured for item CN1CCC=C(c2ccc(CN(C)Cc3ccc(Cl)cc3)cc2)C1
[reply] 5.60
